# PROTOCOL SUMMARY: viability gain of MRP-1-high H69AR cells under doxorubicin, pilot screen, MRP-1 activator project, CellTiter-Glo, duplicate (AID 807);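 further: compound pretreatment 18-22 h then 72 h combined with doxorubicin; 0% = doxorubicin alone and 100% = vehicle without doxorubicin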
# CONDITION SET: H69AR viability with doxorubicin, CellTiter-Glo luminescence; at 10 µM; hits give high values
Please go through the items and note down their viability increase.
Numbers only, in %.

Completed entries (count: 10):
{"COMPOUND": "COc1ccc(C)cc1NC(=O)c1nnn(CCc2ccccc2)c1N", "viability increase (%)": -5.29}
{"COMPOUND": "CCOC(=O)c1c(CN(CC)CC)oc2cc(Br)c(O)cc12", "viability increase (%)": -3.81}
{"COMPOUND": "COc1ccccc1N1C(=O)C2CC=CC(C)C2C1=O (centres undefined)", "viability increase (%)": -0.91}
{"COMPOUND": "O=CN1CCN(C(C(=O)NC2CCCC2)c2ccc(Cl)cc2)CC1 (centres undefined)", "viability increase (%)": -1.14}
{"COMPOUND": "CN(C)S(=O)(=O)c1ccc(NC(=O)C2COc3ccccc3O2)cc1 (centres undefined)", "viability increase (%)": 0.49}
{"COMPOUND": "COc1ccc(S(=O)(=O)NCc2ccccc2Cl)cc1OC", "viability increase (%)": -1.42}
{"COMPOUND": "Cc1ccc(N2C(=O)C(Cl)=C(NCCO)C2=O)c(C)c1", "viability increase (%)": -2.47}
{"COMPOUND": "CCC(=O)N=c1sc2c(C)cc(C)cc2n1CC(=O)OC", "viability increase (%)": -0.83}
{"COMPOUND": "N#Cc1nc(COc2cccc(Cl)c2)oc1NCc1ccco1", "viability increase (%)": -2.87}
{"COMPOUND": "CC(=O)Nc1ccc(S(=O)(=O)N2CCSCC2)cc1", "viability increase (%)": -2.25}

I'm hoping you can list viability increase for every compound here, please.
1. CC1CCN(c2ncnc3c2cnn3-c2ccccc2)CC1
2. CCSc1nnc2c(n1)OC(c1ccc(C(=O)O)cc1)N(C(C)=O)c1ccccc1-2 (centres undefined)
3. O=c1cc(CSc2nnc(-c3ccccc3)o2)c2ccccc2[nH]1

Solution:
[4.17, -1.34, 0.91]

I'm hoping you can list viability increase for every compound here, please.
1. COC(=O)CSC1=C(C#N)C(c2cccc(OC)c2)CC(=O)N1 (centres undefined)
2. COc1cccc(C2CC(=O)N3CN(c4cccc(Cl)c4C)CSC3=C2C#N)c1OC (centres undefined)
3. COc1ccc(-n2nc3cc(C)c(NC(=O)CC(C)C)cc3n2)cc1

Solution:
1: -3.93; 2: -4.11; 3: -0.97

I'm hoping you can list viability increase for every compound here, please.
1. CC(C)OC(=O)c1nnc(Cc2ccc(Cl)cc2)o1
2. O=C(Nc1ccccc1Oc1ccccc1)C1CC1
3. Cc1cccc(CCNC(=O)C2CCC(CNc3c(N4CCCC4)c(=O)c3=O)CC2)c1 (centres undefined)
4. O=C1Nc2cc(Cl)cnc2N2CCCC12 (centres undefined)

Solution:
[0.7, -2.26, -1.92, -0.67]
